The measured values listed here are drawn from patent US20200079833A1.

Target: glucagon receptor (GCGR), primary cAMP assay (human, UniProt P47871 26-477)
Sequence (P47871 26-477): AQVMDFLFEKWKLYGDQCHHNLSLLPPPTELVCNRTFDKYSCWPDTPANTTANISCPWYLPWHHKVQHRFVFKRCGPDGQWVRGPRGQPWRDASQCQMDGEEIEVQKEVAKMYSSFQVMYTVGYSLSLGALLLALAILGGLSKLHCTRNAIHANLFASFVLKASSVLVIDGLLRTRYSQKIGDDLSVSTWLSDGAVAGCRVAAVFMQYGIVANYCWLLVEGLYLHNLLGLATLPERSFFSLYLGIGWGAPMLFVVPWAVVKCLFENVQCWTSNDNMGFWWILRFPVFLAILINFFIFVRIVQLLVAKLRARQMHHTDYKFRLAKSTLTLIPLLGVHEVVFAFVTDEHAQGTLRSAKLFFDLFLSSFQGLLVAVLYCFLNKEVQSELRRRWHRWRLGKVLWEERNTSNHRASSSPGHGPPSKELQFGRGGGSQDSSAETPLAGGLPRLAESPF
Assay: cell-based or functional assay
Starred links: 1 amine or outer side, 2 acyl side, 3 side chain; linkers in the order of their positions; H or OH if unused. Non-standard residues stand in square brackets, D forms with d. Groups on a side chain read outwards from the residue. Primed or numbered codes have the meaning given here. No end group written: not given here. *: point of attachment. γGlu = O=C(O)[C@H](CCC(=O)[*:2])N[*:1]; Stearoyl = CCCCCCCCCCCCCCCCCC(=O)*; αMeF = C[C@](N)(Cc1ccccc1)C(=O)O; αMeK = C[C@](N)(CCCCN)C(=O)O; Lauroyl = CCCCCCCCCCCC(=O)*; αMeS = C[C@](N)(CO)C(=O)O; PEG2′ = not defined here; Aib = CC(C)(N)C(=O)O
testReadout: Primary assay EC50 (cAMP), n2
# answer = value followed by unit

H[Aib]EGS[αMeF]TSDVSK([PEG2′-PEG2′-γGlu-Lauroyl])YLEGEAA[αMeK]EFIAWK([PEG2′-PEG2′-γGlu-Lauroyl])VEGG-NH2 [SEQ ID NO: 253]
22.3 nM
H[Aib]EGS[αMeF]TSDK([PEG2′-PEG2′-γGlu-Lauroyl])SSYLEGEAA[αMeK]EFIAWK([PEG2′-PEG2′-γGlu-Lauroyl])VEGG-NH2 [SEQ ID NO: 258]
22.3 nM
H[Aib]EGS[αMeF]TSDV[αMeS]SK([PEG2′-PEG2′-γGlu-Stearoyl])LEGEAA[αMeK]E[αMeF]IAK([PEG2′-PEG2′-γGlu-Stearoyl])VVEGG-NH2 [SEQ ID NO: 410]
21.5 nM

Continue with the next binder.
[ask] Could you share which Primary assay EC50 (cAMP), n2 value was measured for H[Aib]EGS[αMeF]TSDV[αMeS]SK([PEG2′-PEG2′-γGlu-Lauroyl])LEGEAA[αMeK]E[αMeF]IAK([PEG2′-PEG2′-γGlu-Lauroyl])VVEGG-NH2 [SEQ ID NO: 405] ?
[reply] 21.5 nM
